biological target: TNFRSF9, Q07011; assay: Kd (SPR)
Below, each entry is listed with its recorded Kd.
Please provide the amount together with its unit, number first.

Examples with answers:
# binder, Kd
measured = [
    ("unnamed (protein) chain 1: EVQLVQSGAEVKKPGESLRISCKGSGYSFSTYWISWVRQMPGKGLEWMGKIYPGDSYTNYSPSFQGQVTISADKSISTAYLQWSSLKASDTAMYYCARGTGLFDYWGQGTLVTVSS chain 2: SYELTQPPSVSVSPGQTASITCSGDNIGDQYAHWYQQKPGQSPVLVIYQDKNRPSGIPERFSGSNSGNTATLTISGTQAMDEADYYCATYTGFGSLAVFGGGTKLTVL", "0.0956 µM"),
    ("unnamed (protein) chain 1: EVQLVQSGAEVKKPGESLRISCKGSGYSFSTYWISWVRQMPGKGLEWMGKIYPGDSYTNYSPSFQGQVTISADKSISTAYLQWSSLKASDTAMYYCARGWGIFDYWGQGTLVTVSS chain 2: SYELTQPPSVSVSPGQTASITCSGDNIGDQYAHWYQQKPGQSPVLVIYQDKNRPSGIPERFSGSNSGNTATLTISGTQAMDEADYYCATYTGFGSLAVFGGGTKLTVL", "0.045 µM"),
]

Query string: Sample unnamed (protein) chain 1: EVQLVQSGAEVKKPGESLRISCKGSGYSFSSYWISWVRQMPGKGLEWMGKIYPGDSYTNYSPSFQGQVTISADKSISTAYLQWSSLKASDTAMYYCARGTGLFDYWGQGTLVTVSS chain 2: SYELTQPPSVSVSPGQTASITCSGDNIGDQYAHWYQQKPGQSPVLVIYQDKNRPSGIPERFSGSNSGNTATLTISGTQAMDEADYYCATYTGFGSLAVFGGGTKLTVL — what was its Kd?
Result string: 0.15 µM

Value source: the FLAb antibody collection (doi:10.1101/2023.12.08.570889)
